# credit: ChEMBL document CHEMBL1156482

// Ki lookup, one value per entry
# ASSAY TARGET: C-X-C chemokine receptor type 4 (Homo sapiens, UniProt P61073, I284A)
# Sequence (P61073 whole entry I284A): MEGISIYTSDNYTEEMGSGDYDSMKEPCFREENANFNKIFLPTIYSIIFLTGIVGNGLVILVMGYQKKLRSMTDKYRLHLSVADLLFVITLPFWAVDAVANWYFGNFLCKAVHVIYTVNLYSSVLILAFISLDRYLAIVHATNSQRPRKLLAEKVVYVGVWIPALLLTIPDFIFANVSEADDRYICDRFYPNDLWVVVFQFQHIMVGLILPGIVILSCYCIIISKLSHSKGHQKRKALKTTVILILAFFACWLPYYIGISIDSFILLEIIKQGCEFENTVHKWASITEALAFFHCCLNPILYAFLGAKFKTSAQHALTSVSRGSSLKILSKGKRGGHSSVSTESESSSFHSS
# TEST PROTOCOL: Antagonist activity at human CXCR4 I284A mutant expressed in COS7 cells coexpressing G protein Gqi4myr assessed as inhibition of CXCL12-induced phosphatidylinositol turnover
# Type: functional, cell-based, COS-7
Hi! Could you send only the number? It should be in nM, unit omitted.

Here is how some compounds turned out for Ki.
>>> print(df.to_string())
                                item_smiles                              assay_target  assay_result
0              Cc1ccc(CN2CCCNCCNCCCNCC2)cc1  C-X-C chemokine receptor type 4 (Homo sapiens, UniProt P61073, I284A)          2300
1  c1ccc(CNCc2ccc(CN3CCCNCCNCCCNCC3)cc2)nc1  C-X-C chemokine receptor type 4 (Homo sapiens, UniProt P61073, I284A)            30

Record lookup: for C-X-C chemokine receptor type 4 (Homo sapiens, UniProt P61073, I284A), what Ki belongs to c1ccc(CNCc2ccc(CN3CCCNCCNCCCNCC3)cc2)cc1 ? 420

---

# ASSAY TARGET: C-X-C chemokine receptor type 4 (Homo sapiens, UniProt P61073, D262N)
# Sequence (P61073 whole entry D262N, the tested form may be a part): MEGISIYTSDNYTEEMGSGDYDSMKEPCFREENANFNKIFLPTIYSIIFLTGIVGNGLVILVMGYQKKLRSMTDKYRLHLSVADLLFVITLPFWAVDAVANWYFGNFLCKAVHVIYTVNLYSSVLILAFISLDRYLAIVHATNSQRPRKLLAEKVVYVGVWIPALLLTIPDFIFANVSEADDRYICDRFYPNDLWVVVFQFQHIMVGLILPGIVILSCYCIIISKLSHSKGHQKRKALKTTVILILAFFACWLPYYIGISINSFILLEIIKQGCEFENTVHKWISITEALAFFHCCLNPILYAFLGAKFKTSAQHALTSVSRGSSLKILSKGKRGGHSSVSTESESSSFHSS
# TEST PROTOCOL: Displacement of [125I]12G5 antibody from transmembrane domain 6 of human CXCR4 D262N mutant expressed in COS7 cells
# Type: cell-based, COS-7
VALUE TYPE: Ki (µM)
Report the figure in µM without appending any unit label.

Can you share its Ki? I mean this molecule: c1ccc(CNCc2ccc(CN3CCCNCCNCCCNCC3)cc2)nc1 600

---

# ASSAY TARGET: C-X-C chemokine receptor type 4 (Homo sapiens, UniProt P61073, T287A)
# Sequence (P61073 whole entry T287A): as the sequence (P61073 whole entry D262N, the tested form may be a part) above, with N262D, T287A counted along it
# TEST PROTOCOL: Antagonist activity at human CXCR4 T287A mutant expressed in COS7 cells coexpressing G protein Gqi4myr assessed as inhibition of CXCL12-induced phosphatidylinositol turnover
# Type: functional, cell-based, COS-7
VALUE TYPE: Ki (nM)
Enter your answer as a number in nM; do not include the unit.

Some entries whose results are on file:
>>> print(df.to_string())
                                item_smiles  value_type  assay_result
0  c1ccc(CNCc2ccc(CN3CCCNCCNCCCNCC3)cc2)cc1          Ki           340
1  c1ccc(CNCc2ccc(CN3CCCNCCNCCCNCC3)cc2)nc1          Ki            10

Please look up its Ki: Cc1ccc(CN2CCCNCCNCCCNCC2)cc1 3300
